Overview of reported EC50 across a group of molecules:
- System: Plasmodium falciparum
- method: NOVARTIS: Inhibition of Plasmodium falciparum W2 (drug-resistant) proliferation in erythrocyte-based infection assay
- Type: functional, organism-based
- recorded-conditions: Plasmodium falciparum, W2; read-out: EC50
assay-metric: EC50 (nM)

molecule	assay-metric	measurement-qualifier	measured-result
Clc1cc(C=NNC2=NCCCN2)cc(Cl)n1	EC50	>	718
CCC(c1nc2ccccc2c(=O)n1-c1cccc(Cl)c1)N(CCC(C)C)C(=O)COCc1ccccc1 (stereo not given)	EC50	>	1140
Cc1ccc(NC(C)C(=O)Nc2ccc(C#N)cc2)cc1S(=O)(=O)N1CCCCC1 (stereo not given)	EC50	=	446
Fc1ccc2nc(Nc3nc(-c4ccccn4)cs3)sc2c1	EC50	=	216
CCOC(=O)C1=C(C)NC2=C(C(=O)CC(c3ccc(OC)c(OC)c3)C2)C1c1ccccc1C (stereo not given)	EC50	=	27.4
OC(CNC1CCCCC1)Cn1c2ccccc2c2ccccc21 (stereo not given)	EC50	=	198
COc1cccc(-c2nc3c(OC)ccc(OC)c3cc2CNCC(C)(C)CN(C)C)c1	EC50	=	186
c1ccc(CCc2nc3cccnc3n2C2CCN(C3CCN(Cc4ccccc4)CC3)CC2)cc1	EC50	=	175
CCn1c(SCC(=O)N(c2ccccc2)c2ccccc2)nc2sc3c(c2c1=O)CCN(C)C3	EC50	=	7340
CN1CCC(N2CCC(Oc3cccc(C(=O)NCCC4=CCCCC4)c3)CC2)CC1	EC50	=	944

Data credit: ChEMBL document CHEMBL1156829
